Taken from patent US11357779B2.

Test: Noncompartmental pharmacokinetic parameters (Cmax, Tmax, AUC, Racc) in QD and BID cohorts of Form B
Format: in vivo, human
Settings: human, plasma, oral, 200 mg, Cohort 1, 200 mg QD of Form B, Day 1; read-out: Tmax, Mean

[
  {
    "structure smiles string": "CC(C)N1CCN(c2ccc(Nc3ncc4cc5n(c4n3)C3(CCCCC3)CNC5=O)nc2)CC1",
    "Tmax / h": 4.17
  }
]

====

Test: Plasma concentration versus time of Compound I and metabolite Compound III in patients dosed QD or BID with Form B of Compound II plus fulvestrant
Type: in vivo, human
Settings: human, plasma, oral, 650 mg, Cohort 5, 650 mg QD of Form B, Day 29, 1.0 h; read-out: Compound III Concentration, Min
test readout: concentration at 1 h

[
  {
    "structure smiles string": "O=C1NCC2(CCCCC2)n2c1cc1cnc(Nc3ccc(N4CCNCC4)cn3)nc12",
    "experimental result": "1.28 ng/mL"
  }
]

====

Experiment: Plasma concentration versus time of Compound I and metabolite Compound III in patients dosed QD or BID with Form B of Compound II plus fulvestrant
Format: in vivo, human
Settings: human, plasma, oral, 400 mg, 400 mg QD of Form B, Day 29, 4.0 h, Mean; read-out: Compound I Concentration

[
  {
    "structure smiles string": "CC(C)N1CCN(c2ccc(Nc3ncc4cc5n(c4n3)C3(CCCCC3)CNC5=O)nc2)CC1",
    "concentration at 4 h": "17 ng/mL"
  }
]

====

Test: Noncompartmental pharmacokinetic parameters (Cmax, Tmax, AUC, Racc) in QD and BID cohorts of Form B
Assay type: in vivo, human
Conditions: human, plasma, oral, 100 mg, Compound III; 100 mg BID of Form B; Cohort 6; Day 29; read-out: Cmax (Mean)

[
  {
    "structure smiles string": "O=C1NCC2(CCCCC2)n2c1cc1cnc(Nc3ccc(N4CCNCC4)cn3)nc12",
    "unit symbol": "ng/mL",
    "Cmax": 1.89
  }
]

====

Assay: Plasma concentration versus time of Compound I and metabolite Compound III in patients dosed QD or BID with Form B of Compound II plus fulvestrant
Format: in vivo, human
Conditions: human, plasma, oral, 500 mg, 500 mg QD of Form B, Day 29, […], Mean; read-out: Compound I Concentration
test readout: concentration at 24 h

[
  {
    "molecule": "CC(C)N1CCN(c2ccc(Nc3ncc4cc5n(c4n3)C3(CCCCC3)CNC5=O)nc2)CC1 [Compound I]",
    "experimental result": "12.5 ng/mL"
  }
]

====

Assay: Plasma concentration versus time of Compound I and metabolite Compound III in patients dosed QD or BID with Form B of Compound II plus fulvestrant
Assay type: in vivo, human
Details: human, plasma, oral, 500 mg, Cohort 4, 500 mg QD of Form B, Day 8; read-out: Trough Compound I Concentration, Max

[
  {
    "compound": "CC(C)N1CCN(c2ccc(Nc3ncc4cc5n(c4n3)C3(CCCCC3)CNC5=O)nc2)CC1 [Compound I]",
    "concentration at 8 day (µg/mL)": 0.0235
  }
]

====

Experiment: Noncompartmental pharmacokinetic parameters (Cmax, Tmax, AUC, Racc) in QD and BID cohorts of Form B
Format: in vivo, human
Conditions: human, plasma, oral, 500 mg, Compound III; 500 mg QD of Form B; Cohort 4; Day 1; read-out: Tmax (Mean)
test readout: Tmax (h)

[
  {
    "structure smiles string": "O=C1NCC2(CCCCC2)n2c1cc1cnc(Nc3ccc(N4CCNCC4)cn3)nc12",
    "test readout": "Tmax",
    "experimental result": 5.5
  }
]

====

Test: Plasma concentration versus time of Compound I and metabolite Compound III in patients dosed QD or BID with Form B of Compound II plus fulvestrant
Assay type: in vivo, human
Settings: human, plasma, oral, 200 mg, 200 mg QD of Form B, Day 29, 12.0 h, Median; read-out: Compound I Concentration
test readout: concentration at 12 h

[
  {
    "structure smiles string": "CC(C)N1CCN(c2ccc(Nc3ncc4cc5n(c4n3)C3(CCCCC3)CNC5=O)nc2)CC1",
    "experimental result": "8.32 ng/mL"
  }
]

====

Assay: Plasma concentration versus time of Compound I and metabolite Compound III in patients dosed QD or BID with Form B of Compound II plus fulvestrant
Format: in vivo, human
Conditions: human, plasma, oral, 650 mg, Cohort 5, 650 mg QD of Form B, Day 29, 8.0 h; read-out: Compound III Concentration, Median
test readout: concentration at 8 h

[
  {
    "structure smiles string": "O=C1NCC2(CCCCC2)n2c1cc1cnc(Nc3ccc(N4CCNCC4)cn3)nc12",
    "experimental result": "8.64 ng/mL"
  }
]

====

Assay: Plasma concentration versus time of Compound I and metabolite Compound III in patients dosed QD or BID with Form B of Compound II plus fulvestrant
Type: in vivo, human
Settings: human, plasma, oral, 300 mg, 300 mg QD of Form B, Day 1, 6.0 h, Median; read-out: Compound I Concentration
From the text: Patients were enrolled into 1 of 2 parallel, independently operating, dose-escalation dosing cohorts with Form B of Compound II administered continuously either once daily (QD) or twice daily (BID) with food with fixed-dose fulvestrant (intramuscularly every 14 days for the first three injections and then every 28 days). Pre- or perimenopausal patients also received goserelin for the duration of study treatment. […]
test readout: concentration at 6 h (ng/mL)

[
  {
    "structure smiles string": "CC(C)N1CCN(c2ccc(Nc3ncc4cc5n(c4n3)C3(CCCCC3)CNC5=O)nc2)CC1",
    "test readout": "concentration at 6 h",
    "experimental result": 43.1
  }
]

====

Assay: Plasma concentration versus time of Compound I and metabolite Compound III in patients dosed QD or BID with Form B of Compound II plus fulvestrant
Type: in vivo, human
Details: human, plasma, oral, 200 mg, 200 mg BID of Form B, Day 1, 10.0 h, Median; read-out: Compound I Concentration

[
  {
    "structure smiles string": "CC(C)N1CCN(c2ccc(Nc3ncc4cc5n(c4n3)C3(CCCCC3)CNC5=O)nc2)CC1",
    "concentration at 10 h": "6.33 ng/mL"
  }
]

====

Experiment: Plasma concentration versus time of Compound I and metabolite Compound III in patients dosed QD or BID with Form B of Compound II plus fulvestrant
Assay type: in vivo, human
Conditions: human, plasma, oral, 500 mg, 500 mg QD of Form B, Day 29, 4.0 h, Median; read-out: Compound I Concentration

[
  {
    "structure smiles string": "CC(C)N1CCN(c2ccc(Nc3ncc4cc5n(c4n3)C3(CCCCC3)CNC5=O)nc2)CC1",
    "concentration at 4 h (ng/mL)": 44.9
  }
]

====

Assay: Plasma concentration versus time of Compound I and metabolite Compound III in patients dosed QD or BID with Form B of Compound II plus fulvestrant
Assay type: in vivo, human
Conditions: human, plasma, oral, 100 mg, Cohort 6, 100 mg BID of Form B, Day 29, 8.0 h; read-out: Compound I Concentration, Min
Description: Patients were enrolled into 1 of 2 parallel, independently operating, dose-escalation dosing cohorts with Form B of Compound II administered continuously either once daily (QD) or twice daily (BID) with food with fixed-dose fulvestrant (intramuscularly every 14 days for the first three injections and then every 28 days). Pre- or perimenopausal patients also received goserelin for the duration of study treatment. […]

[
  {
    "structure smiles string": "CC(C)N1CCN(c2ccc(Nc3ncc4cc5n(c4n3)C3(CCCCC3)CNC5=O)nc2)CC1",
    "concentration at 8 h, ng/mL": 3.61
  }
]

====

Assay: Plasma concentration versus time of Compound I and metabolite Compound III in patients dosed QD or BID with Form B of Compound II plus fulvestrant
Assay type: in vivo, human
Settings: human, plasma, oral, 650 mg, Cohort 5, 650 mg QD of Form B, Day 29, 6.0 h; read-out: Compound I Concentration, Mean
test readout: concentration at 6 h (ng/mL)

[
  {
    "compound": "CC(C)N1CCN(c2ccc(Nc3ncc4cc5n(c4n3)C3(CCCCC3)CNC5=O)nc2)CC1 [Compound I]",
    "experimental result": 58.8
  }
]

====

Test: Plasma concentration versus time of Compound I and metabolite Compound III in patients dosed QD or BID with Form B of Compound II plus fulvestrant
Assay type: in vivo, human
Details: human, plasma, oral, 650 mg, Cohort 5, 650 mg QD of Form B, Day 29, 10.0 h; read-out: Compound I Concentration, Median
Description: Patients were enrolled into 1 of 2 parallel, independently operating, dose-escalation dosing cohorts with Form B of Compound II administered continuously either once daily (QD) or twice daily (BID) with food with fixed-dose fulvestrant (intramuscularly every 14 days for the first three injections and then every 28 days). Pre- or perimenopausal patients also received goserelin for the duration of study treatment. […]

[
  {
    "compound": "CC(C)N1CCN(c2ccc(Nc3ncc4cc5n(c4n3)C3(CCCCC3)CNC5=O)nc2)CC1 [Compound I]",
    "concentration at 10 h / ng/mL": 58.1
  }
]
